Across several studies, compounds have been characterized by their pKi on Melanocortin receptor 3 (Homo sapiens); a selection follows.
Sequence (P41968 whole entry): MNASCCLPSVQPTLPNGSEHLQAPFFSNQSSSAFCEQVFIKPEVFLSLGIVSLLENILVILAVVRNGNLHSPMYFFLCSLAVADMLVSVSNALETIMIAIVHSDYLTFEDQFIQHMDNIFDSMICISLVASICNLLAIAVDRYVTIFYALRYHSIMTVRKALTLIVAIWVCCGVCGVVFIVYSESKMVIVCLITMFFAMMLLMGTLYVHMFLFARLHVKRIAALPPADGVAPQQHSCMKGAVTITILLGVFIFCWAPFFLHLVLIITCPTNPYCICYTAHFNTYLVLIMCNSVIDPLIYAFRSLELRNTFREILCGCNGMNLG
Please keep in mind that pKi is minus log10 of the molar concentration; only the number is needed.

Solved entries (count: 4):
- COc1cc(Cl)ccc1CC(C)C(=O)N1CCN(c2ccc(C(F)(F)F)cc2[C@@H](N)CC(C)C)CC1 (some centres not stated): 6.49
- CCCC[C@H](NC(=O)[C@@H](NC(=O)[C@@H](N)Cc1ccc(O)cc1)C(C)C)C(=O)N[C@@H]1CSSC[C@@H](C(=O)N[C@@H](CCCNC(=N)N)C(=O)N[C@@H](Cc2ccccc2)C(=O)NCC(N)=O)NC(=O)[C@H](Cc2c[nH]c3ccccc23)NC(=O)[C@H](CCCNC(=N)N)NC(=O)[C@H](Cc2ccccc2)NC(=O)[C@H](Cc2cnc[nH]2)NC1=O: 5.80
- O=C(N[C@H](Cc1ccc(Cl)cc1)C(=O)N1CCN([C@@H]2CCCC[C@H]2n2cncn2)CC1)C1Cc2ccccc2CN1 (some centres not stated): 5.36
- O=C(N[C@H](Cc1ccc(Cl)cc1)C(=O)N1CCN(c2ccccc2CNCCc2cccs2)CC1)c1cccnc1: 5.74

Enquiry: Report pKi under test system Melanocortin receptor 3 (Homo sapiens) for CCC(=O)N[C@@H](Cc1c[nH]cn1)C(=O)N[C@@H](Cc1ccccc1)C(=O)N[C@@H](CCCN=C(N)N)C(=O)N[C@@H](Cc1c[nH]c2ccccc12)C(N)=O .
Return: 6.27

Enquiry: Report pKi under test system Melanocortin receptor 3 (Homo sapiens) for CC(C)C(=O)N[C@@H](Cc1cnc[nH]1)C(=O)N[C@@H](Cc1ccccc1)C(=O)N[C@@H](CCCNC(=N)N)C(=O)N[C@@H](Cc1c[nH]c2ccccc12)C(N)=O .
Return: 6.55

Enquiry: Report pKi under test system Melanocortin receptor 3 (Homo sapiens) for CN(C)C1CCc2cccc(N3CCN(C(=O)[C@@H](Cc4ccc(Cl)cc4)NC(=O)[C@H]4Cc5ccccc5CN4)CC3)c2C1 (some centres not stated) .
Return: 5.09

Enquiry: Report pKi under test system Melanocortin receptor 3 (Homo sapiens) for N[C@H](Cc1ccc(Cl)cc1)C(=O)N1CCC(Cn2cncn2)(C2CCCCC2)CC1 .
Return: 5.64

Enquiry: Report pKi under test system Melanocortin receptor 3 (Homo sapiens) for N=C(N)NCCC[C@@H]1C[C@H](OCc2ccc3ccccc3c2)CN1C(=O)[C@@H](Cc1ccccc1)NC(=O)[C@@H]1CCCCN1 .
Return: 5.14

Enquiry: Report pKi under test system Melanocortin receptor 3 (Homo sapiens) for CNC(=O)[C@H](Cc1ccc2ccccc2c1)NC(=O)[C@H](CCCN=C(N)N)NC(=O)[C@H](CC[C@H](Cc1ccccc1)NC(C)=O)Cc1ccc(F)cc1 .
Return: 4.26

Enquiry: Report pKi under test system Melanocortin receptor 3 (Homo sapiens) for C[C@@H]1CN[C@@H](C)CN1/C(=N/c1ccc(C(=O)NCCc2ccc(Cl)cc2Cl)cc1)NC1CCCCC1 .
Return: 5.55
